- measurement target: T1, human CD38 expressed on the cell surface (human, UniProt P28907 1-300)
- T1 construct: whole, on cells; also called hCD38-expressing cells; huCD38
- assay overview: flow cytometry on preB::300.19 cells, apparent KD
pKd: −log10 of the molar value.

binder	pKd
mAb1 (antibody, human IgG1, kappa, V domains shown, also called antiCD38_C2-CD38-1) VH: QVQLQQSGAELVRSGASVKMSCKASGYTFTSFNMHWVKETPGQGLEWIGYIYPGNGGTNYNQKFKGKATLTADTSSSTAYMQISSLTSEDSAVYFCARTGGLRRAYFTYWGQGTLVTVSS VL: DIVLTQSPASLAVSLGQRATISCRASESVDSYGNGFMHWYQQKPGQPPKLLIYLASNLESGVPARFSGSGSRTDFTLTIDPVEADDAATYYCQQNKEDPWTFGGGTKLEIKR	9.55
mAb5 (antibody, human IgG1, kappa, V domains shown, also called antiCD38_C2-CD38-1_VH6-VL3) VH: QVQLVQSGAEVVKPGASVKMSCKASGYTFTSFNMHWVKEAPGQRLEWIGYIYPGNGGTNYNQKFQGRATLTADTSASTAYMEISSLRSEDTAVYFCARTGGLRRAYFTYWGQGTLVTVSS VL: DIVLTQSPATLSLSPGERATISCRASESVDSYGNGFMHWYQQKPGQPPRLLIYLASSRATGIPARFSGSGSGTDFTLTISPLEPEDFAVYYCQQNKEDPWTFGGGTKLEIKR	9.17
mAb4 (antibody, human IgG1, kappa, V domains shown, also called antiCD38_C2-CD38-1_VH5-VL3) VH: QVQLVQSGAEVVKSGASVKVSCKASGYTFTSFNMHWVKEAPGQGLEWIGYIYPGNGGTNYNQKFQGRATLTADTSASTAYMEISSLRSEDTAVYFCARTGGLRRAYFTYWGQGTLVTVSS VL: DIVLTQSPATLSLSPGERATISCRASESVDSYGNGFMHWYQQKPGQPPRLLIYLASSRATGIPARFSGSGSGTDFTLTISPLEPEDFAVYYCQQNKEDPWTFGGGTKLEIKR	9.48
mAb2 (antibody, human IgG1, kappa, V domains shown, also called antiCD38_C2-CD38-1_VH1-VL1; CD38VH1) VH: QVQLVQSGAEVVKPGASVKVSCKASGYTFTSYAMHWVKEAPGQRLEWIGYIYPGQGGTNYNQKFQGRATLTADTSASTAYMELSSLRSEDTAVYFCARTGGLRRAYFTYWGQGTLVTVSS VL: DIVLTQSPATLSLSPGERATISCRASQSVSSYGQGFMHWYQQKPGQPPRLLIYGASSRATGIPARFSGSGSGTDFTLTISPLEPEDFAVYYCQQNKEDPWTFGGGTKLEIKR	9.48

Where do these numbers come from? They come from patent US20220041746A1.
